# credit: patent US8822449B2

Reported IC50 is given for each of the following compounds.
systemTested: sodium-proton exchanger of subtype 3 (NHE3) (Homo sapiens, UniProt P48764)
Construct: expressed in transfected cells
Sequence (P48764 26-834, species assumed): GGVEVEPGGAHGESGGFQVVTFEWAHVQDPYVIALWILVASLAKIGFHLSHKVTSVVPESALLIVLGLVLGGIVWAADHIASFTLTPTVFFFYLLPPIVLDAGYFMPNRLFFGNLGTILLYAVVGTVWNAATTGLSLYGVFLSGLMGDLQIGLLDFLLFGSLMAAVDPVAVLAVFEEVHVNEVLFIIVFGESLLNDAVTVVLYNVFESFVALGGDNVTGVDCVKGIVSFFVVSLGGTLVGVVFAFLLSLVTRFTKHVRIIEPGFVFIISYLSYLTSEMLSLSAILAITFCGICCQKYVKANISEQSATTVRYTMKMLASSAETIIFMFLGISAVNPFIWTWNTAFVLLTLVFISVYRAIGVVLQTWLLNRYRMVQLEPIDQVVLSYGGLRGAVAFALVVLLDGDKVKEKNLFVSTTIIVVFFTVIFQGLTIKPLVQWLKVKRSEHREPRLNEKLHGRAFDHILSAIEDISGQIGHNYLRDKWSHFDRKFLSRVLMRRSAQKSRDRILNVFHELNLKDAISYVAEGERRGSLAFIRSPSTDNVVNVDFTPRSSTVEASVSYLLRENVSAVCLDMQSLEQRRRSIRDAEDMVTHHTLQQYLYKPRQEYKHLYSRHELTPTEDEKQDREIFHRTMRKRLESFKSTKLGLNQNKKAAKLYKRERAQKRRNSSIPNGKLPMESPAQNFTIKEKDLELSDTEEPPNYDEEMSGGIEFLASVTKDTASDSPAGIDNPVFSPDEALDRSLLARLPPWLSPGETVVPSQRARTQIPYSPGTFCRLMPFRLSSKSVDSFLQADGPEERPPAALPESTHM
assayProcedure: Recovery of intracellular pH (pHi) after acidification in LAP1 cells stably expressing NHE3 (BCECF fluorescence, FLIPR)
Format: cell-based
conditionSet: LAP1 cells stably expressing NHE3; pH recovery after acidification; range 1 is % inhibition at 10 μM; read-out: Activity range (inhibitory effect on NHE3)

{"compound": "O=S(=O)(NCC(F)(F)F)c1ccc(O[C@@H]2c3ccccc3C[C@H]2N2CCCC2)cc1 (racemic) [Example 469]", "IC50": "1 to 10 µM"}
{"compound": "O=C1CNC(=O)N1c1ccc(F)c(O[C@H]2c3cc(Cl)cc(Cl)c3C[C@@H]2N2CC[C@@H](O)C2)c1 [Example 417]", "IC50": "1 to 10 µM"}
{"compound": "COC(=O)c1ccc(O[C@H]2c3ccccc3C[C@@H]2N2CCCC2)cc1 (racemic) [Example 467]", "IC50": "1 to 10 µM"}
{"compound": "CC(=O)Nc1cccc(O[C@H]2c3cc(Cl)cc(Cl)c3C[C@@H]2N2CC[C@@H](O)C2)c1 [Example 696]", "IC50": "< 1 µM"}
{"compound": "NC1CCN([C@@H]2Cc3ccccc3[C@H]2Oc2ccc(Br)cc2-c2cc[nH]n2)CC1 (racemic) [Example 343]", "IC50": "1 to 10 µM"}
{"compound": "COC[C@@H]1CCCN1[C@H]1Cc2c(Cl)cc(Cl)cc2[C@@H]1Oc1ccc(-n2c(C)nnc2C)cc1 [Example 562]", "IC50": "1 to 10 µM"}
{"compound": "CS(=O)(=O)c1ccc(O[C@@H]2c3ccccc3C[C@H]2NCC2CCC2)cc1 (racemic) [Example 717]", "IC50": "1 to 10 µM"}
{"compound": "CN1CC(=O)N(c2ccc(O[C@H]3c4cc(Cl)cc(Cl)c4C[C@@H]3N3CC[C@@H](O)C3)c(Cl)c2)C1=O [Example 422]", "IC50": "< 1 µM"}
{"compound": "C[C@H]1CN([C@H]2Cc3c(Cl)cc(Cl)cc3[C@@H]2Oc2ccc(S(C)(=O)=O)cc2)CCN1 [Example 197]", "IC50": "< 1 µM"}
{"compound": "CS(=O)(=O)c1ccc(O[C@H]2c3cc(Cl)cc(Cl)c3C[C@@H]2NC2CCCC2)cc1 [Example 747]", "IC50": "1 to 10 µM"}
{"compound": "Cn1ccn(-c2ccc(O[C@H]3c4cc(Cl)cc(F)c4C[C@@H]3NC3CCCC3)c(F)c2)c1=O [Example 755]", "IC50": "1 to 10 µM"}
{"compound": "O=c1oc2ccc(O[C@@H]3c4ccccc4C[C@H]3N3C[C@H]4CNC[C@H]4C3)cc2s1 (racemic) [Example 577]", "IC50": "1 to 10 µM"}
{"compound": "NS(=O)(=O)c1ccc(O[C@H]2c3c(Cl)cccc3C[C@@H]2N2CCCC2)cc1 (racemic) [Example 476]", "IC50": "1 to 10 µM"}
{"compound": "CCc1ccc(O[C@@H]2c3ccccc3C[C@H]2N2C[C@H]3CNC[C@H]3C2)c(C(C)(C)C)c1 (racemic) [Example 12]", "IC50": "< 1 µM"}
{"compound": "CS(=O)(=O)c1ccc(O[C@H]2c3cc(Cl)cc(Cl)c3C[C@@H]2N2CC[C@@H](O)C2)cc1 [Example 103]", "IC50": "< 1 µM"}
{"compound": "Cc1nnc(C)n1-c1ccc(O[C@H]2c3cc(Cl)cc(Cl)c3C[C@@H]2N2CC[C@@](C)(O)C2)cc1 (racemic) [Example 111]", "IC50": "< 1 µM"}
{"compound": "CC(=O)Nc1cccc(O[C@H]2c3c(Cl)cccc3C[C@@H]2N2CCCC2)c1 (racemic) [Example 662]", "IC50": "1 to 10 µM"}
{"compound": "Cc1nnc(C)n1-c1ccc(O[C@H]2c3ccccc3C[C@@H]2N2CCCC2)c(C(F)(F)F)c1 [Example 406]", "IC50": "< 1 µM"}
{"compound": "NC(=O)c1ccc(O[C@@H]2c3ccccc3C[C@H]2N2CCC(N)C2)cc1 (mixture of isomers) [Example 544]", "IC50": "1 to 10 µM"}
{"compound": "CN1CCN(c2ccc(F)c(O[C@H]3c4cc(Cl)cc(Cl)c4C[C@@H]3N3CC[C@@H](O)C3)c2)C1=O [Example 314]", "IC50": "< 1 µM"}
{"compound": "O=c1[nH]ccn1-c1cccc(O[C@@H]2c3ccccc3C[C@H]2N2CCCC2)c1 (racemic) [Example 254]", "IC50": "< 1 µM"}
{"compound": "CC(=O)Nc1cccc(O[C@H]2c3cc(F)ccc3C[C@@H]2N2CCCC2)c1 (racemic) [Example 661]", "IC50": "< 1 µM"}
{"compound": "Cc1nnc(C)n1-c1ccc(O[C@H]2c3cc(Cl)ccc3C[C@@H]2N2CC[C@@H](F)C2)c(Cl)c1 [Example 558]", "IC50": "< 1 µM"}
{"compound": "CCNS(=O)(=O)c1ccc(O[C@@H]2c3ccccc3C[C@H]2N2CCCC2)cc1 (racemic) [Example 700]", "IC50": "< 1 µM"}
{"compound": "Cc1nnc(C)n1-c1ccc(O[C@H]2c3ccccc3C[C@@H]2N2CCCC2)cc1 (racemic) [Example 405]", "IC50": "< 1 µM"}
{"compound": "N#Cc1ccc(O[C@@H]2c3ccccc3C[C@H]2N2CCC[C@@H](N)C2)c(Cl)c1 (racemic) [Example 523]", "IC50": "1 to 10 µM"}
{"compound": "CS(=O)(=O)c1ccc(O[C@H]2c3cc(Cl)cc(Cl)c3C[C@@H]2N2CCC[C@H]2CN2CCCC2)cc1 [Example 195]", "IC50": "< 1 µM"}
{"compound": "CN(C)CCCN(C)[C@H]1Cc2c(Cl)cc(Cl)cc2[C@@H]1Oc1ccc(S(C)(=O)=O)cc1 [Example 672]", "IC50": "< 1 µM"}
{"compound": "O=C1CNC(=O)N1c1ccc(O[C@H]2c3cc(Cl)cc(F)c3C[C@@H]2NC2CCCC2)c(F)c1 [Example 753]", "IC50": "1 to 10 µM"}

* * *

systemTested: sodium-proton exchanger of subtype 3 (NHE3) (Homo sapiens)
Construct: expressed in transfected cells
assayProcedure: Recovery of intracellular pH (pHi) after acidification in LAP1 cells stably expressing NHE3 (BCECF fluorescence, FLIPR)
Assay type: cell-based
conditionSet: LAP1 cells stably expressing NHE3; pH recovery after acidification; range 1 is % inhibition at 10 μM; read-out: Activity range (inhibitory effect on NHE3)
# maps each entry to its IC50

{"compound": "CN(C)CCCN(C)[C@H]1Cc2ccccc2[C@@H]1Oc1ccc(S(C)(=O)=O)cc1 (racemic) [Example 669]", "IC50": "1000 to 10000 nM"}
{"compound": "C[C@@H]1CN([C@H]2Cc3c(Cl)cc(Cl)cc3[C@@H]2Oc2ccc(S(C)(=O)=O)cc2)CCN1 [Example 101]", "IC50": "< 1000 nM"}
{"compound": "NC1CCN([C@@H]2Cc3ccccc3[C@H]2Oc2ccc3cc[nH]c3c2)C1 (mixture of isomers) [Example 262]", "IC50": "1000 to 10000 nM"}
{"compound": "O=C1CCCN1c1ccc(O[C@H]2c3cc(Cl)cc(Cl)c3C[C@@H]2N2CCCC2)cc1 [Example 260]", "IC50": "1000 to 10000 nM"}

* * *

systemTested: sodium-proton exchanger of subtype 3 (NHE3) (Homo sapiens, UniProt P48764)
Construct: expressed in transfected cells
assayProcedure: Recovery of intracellular pH (pHi) after acidification in LAP1 cells stably expressing NHE3 (BCECF fluorescence, FLIPR)
Format: cell-based
conditionSet: LAP1 cells stably expressing NHE3; pH recovery after acidification; range 1 is % inhibition at 10 μM; read-out: Activity range (inhibitory effect on NHE3)
pIC50: −log10 of the molar value.

{"compound": "CC(=O)Nc1cccc(O[C@H]2c3cc(Cl)cc(Cl)c3C[C@@H]2N2CCC[C@@H](N)C2)c1", "pIC50": "> 6.00"}
{"compound": "Cn1ccn(-c2ccc(F)c(O[C@H]3c4cc(Cl)cc(F)c4C[C@@H]3NC3CCCC3)c2)c1=O", "pIC50": "5.00 to 6.00"}
{"compound": "O=C1OCCN1c1cccc(O[C@H]2c3ccccc3C[C@@H]2N2CCCC2)c1 (racemic)", "pIC50": "> 6.00"}
{"compound": "N#Cc1ccc(O[C@H]2c3ccccc3CC[C@@H]2N2CCC[C@H](N)C2)cc1 (racemic)", "pIC50": "5.00 to 6.00"}
{"compound": "NS(=O)(=O)c1ccc(O[C@H]2c3cc(Cl)cc(Cl)c3C[C@@H]2N2CCS(=O)(=O)CC2)cc1", "pIC50": "> 6.00"}
{"compound": "N[C@@H]1CCCN([C@H]2CCc3ccccc3[C@@H]2Oc2ccc(-n3ccnc3)cc2)C1 (racemic)", "pIC50": "5.00 to 6.00"}
{"compound": "N[C@@H]1CCCN([C@@H]2Cc3ccccc3[C@H]2Oc2ccc3oc(=O)sc3c2)C1 (racemic)", "pIC50": "5.00 to 6.00"}
